Cited source for all entries: patent US20230265151A1

- Assayed System: T1, human GIP receptor (human, UniProt P48546 22-466)
- T1 sequence (looked up): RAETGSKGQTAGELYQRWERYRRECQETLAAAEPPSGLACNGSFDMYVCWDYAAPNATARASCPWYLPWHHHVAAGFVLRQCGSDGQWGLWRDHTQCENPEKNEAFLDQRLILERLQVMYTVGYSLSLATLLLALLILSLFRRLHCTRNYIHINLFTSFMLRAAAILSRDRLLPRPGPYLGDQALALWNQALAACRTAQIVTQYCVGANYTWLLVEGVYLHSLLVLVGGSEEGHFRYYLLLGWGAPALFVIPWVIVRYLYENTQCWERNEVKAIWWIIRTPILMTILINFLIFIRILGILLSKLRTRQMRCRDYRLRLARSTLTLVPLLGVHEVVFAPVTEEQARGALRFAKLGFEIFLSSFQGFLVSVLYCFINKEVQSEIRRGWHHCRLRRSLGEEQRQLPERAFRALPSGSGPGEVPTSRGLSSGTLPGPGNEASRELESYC
- Protocol Details: cell-based or functional assay
Criterion: cAMP Emax (1.0% HSA) meeting or surpassing 90%. Met: criterion met. Not met: criterion not met.

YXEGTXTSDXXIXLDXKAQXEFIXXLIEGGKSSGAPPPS (Aib2, αMeF(2F)6, 4Pal10, Dap11, αMeL13, Orn16, Aib20, D-Glu24, αMeY25; acylated K17, K31 (groups as in name); C-terminal amide) | criterion not met
YXEGTXTSDVSIXLDXKAQXEXIXXLIEGGKSSGAPPPS (Aib2, αMeF(2F)6, αMeL13, Orn16, Aib20, αMeF22, D-Glu24, αMeY25; acylated K17, K31 (groups as in name); C-terminal amide) | criterion met
YXEGTXTSDXSIXLDXKAQXEFIXXLIEGGKSSGAPPPX (Aib2, αMeF(2F)6, 4Pal10, αMeL13, Orn16, Aib20, D-Glu24, αMeY25, Orn39; acylated K17, K31 (groups as in name); C-terminal amide) | criterion met
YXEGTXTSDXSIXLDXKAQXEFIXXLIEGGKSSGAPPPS (Aib2, αMeF6, 4Pal10, αMeF13, Orn16, Aib20, D-Glu24, αMeY25; acylated K17, K31 (groups as in name); C-terminal amide) | criterion not met
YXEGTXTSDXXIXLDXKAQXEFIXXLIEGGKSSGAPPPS (Aib2, αMeF(2F)6, 4Pal10, Ac5c11, αMeL13, Orn16, Aib20, D-Glu24, αMeY25; acylated K17, K31 (groups as in name); C-terminal amide) | criterion not met
